test_readout: melting point

Look up melting point of COc1c(N2CCN3CCC2C3)c(F)cc2c(=O)c(C(=O)O)cn([C@@H]3C[C@@H]3F)c12 (stereo partly drawn) [Compd. 28] and report it. 195 to 198 °C (dec.)

Look up melting point of COc1c(N2CCNC3(CC3)C2)c(F)cc2c(=O)c(C(=O)O)cn([C@@H]3C[C@@H]3F)c12 [Compd. 22] and report it. 164 to 167 °C (dec.)

Look up melting point of COc1c(N2CCNC(C3CC3)C2)c(F)cc2c(=O)c(C(=O)O)cn([C@@H]3C[C@@H]3F)c12 (stereo partly drawn) [Compd. 24] and report it. 136 to 139 °C

Look up melting point of COCC1CN(c2c(F)cc3c(=O)c(C(=O)O)cn([C@@H]4C[C@@H]4F)c3c2OC)CCN1 (stereo partly drawn) [Compd. 21] and report it. 92 to 95 °C

Look up melting point of COc1c(N2CCNC(CF)C2)c(F)cc2c(=O)c(C(=O)O)cn([C@@H]3C[C@@H]3F)c12 (stereo partly drawn) [Compd. 19] and report it. 153 to 156 °C

Look up melting point of COc1c(C2CNC3(CCC3)CN2)c(F)cc2c(=O)c(C(=O)O)cn([C@@H]3C[C@@H]3F)c12 (stereo partly drawn) [Compd. 23] and report it. 138 to 140 °C (dec.)
